# ASSAY TEXT: blockers of Ca2+-induced mitochondrial swelling – biochemical, isolated mouse mitochondria, absorbance, primary screen (AID 602449);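 also: 0% = DMSO wells given calcium and 100% = 1 mM EGTA wells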
# DETAILS: 30 min, at 10 µM
Out of some 360,000 compounds screened, about 5,000 (1.4%) were called active.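 The calls were made as follows: active = inhibition of 50% or more, scaled per plate between neutral and stimulator controls; inactive = the rest.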 The entries come from a sample that favours actives as a whole.
I would appreciate it if you answered using one of these outcomes: T for active, F for inactive

COc1ccc(-n2c(C)cc(C(=O)COC(=O)c3cc(OC)c(OC)cc3NC(=O)c3cccs3)c2C)cc1    F
S=C(Nc1cccc(Cl)c1)Nc1ccc2cn[nH]c2c1    T
CCOc1cc(-c2nc3cc(C)ccn3c2NCC2CCCO2)ccc1O (stereo unspecified)    F

# input # lookup: test call for COc1ccc(-n2c(C)cc(C(=O)CSc3nnc(-c4cccs4)o3)c2C)cc1
# output T

# input # lookup: test call for Cc1nc(-c2nnc(SCC(=O)Nc3cc(C(F)(F)F)cc(C(F)(F)F)c3)n2C)cs1
# output F

---

# ASSAY TEXT: blockers of Ca2+-induced mitochondrial swelling – biochemical, isolated mouse mitochondria, absorbance, primary screen (AID 602449);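 also: 0% = DMSO wells given calcium and 100% = 1 mM EGTA wells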
# DETAILS: 30 min, at 10 µM, stronger effect = higher value
Screen size: about 360,000 compounds; about 5,000 (1.4%) were called active. This excerpt belongs to a sample that is enriched for actives.
I'd appreciate it if you could supply inhibition values for the items below.
Answers are plain numbers, in %.

O=C(N/N=C/c1ccc(O)c(O)c1)C1c2ccccc2Oc2ccccc21    104
COc1ccc(NC(=O)CN(C)C(=O)c2ccc(NC3CC3)c([N+](=O)[O-])c2)cc1    0.5
CC1CC(C)CN(CCOc2cccc3ccccc23)C1 (configuration not stated)    -1.7
CC(C)(C)c1nnc(NC(=O)C2c3ccccc3Oc3ccccc32)s1    6.5
NC(N)=N/N=C/c1ccc(OCc2ccc(Cl)cc2Cl)cc1    6
O=C(NCc1cc(C(F)(F)F)cc(C(F)(F)F)c1)C1CC(c2cccc(F)c2)=NO1 (configuration not stated)    2
Cn1c(=O)c2cc(NC(=O)NCCc3cccs3)ccc2n1Cc1cccc(C(F)(F)F)c1    3.3
Cc1ccc(NC(=O)c2sccc2C)cc1[N+](=O)[O-]    -8.8
O=C(Nc1cc(S(=O)(=O)N2CCOCC2)ccc1Cl)c1cc(=O)c2ccccc2o1    -1.5
CCNC(=O)c1sccc1-n1cccc1    -0.7

Please report inhibition for every entry that follows.
1. CC(C)(C)Nc1c(-c2cccs2)nc2ccccn12
2. Cc1cc(C=O)c(C)n1-c1ccc(NC2CCCCC2)c([N+](=O)[O-])c1
3. Cn1c(SCC(=O)N/N=C/c2ccc(O)c(O)c2)nc2ccccc21
4. Cc1ccc(C)c(OCCC(=O)OCC(=O)N2CCN(c3ccccc3)CC2)c1
5. COc1ccccc1C1C(C#N)=C(N)Oc2c1c(-c1ccccc1)nn2-c1ccccc1 (configuration not stated)

# output
0.8
80.6
2.9
-0.6
43.7

---

# ASSAY TEXT: blockers of Ca2+-induced mitochondrial swelling – biochemical, isolated mouse mitochondria, absorbance, primary screen (AID 602449);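 also: 0% = DMSO wells given calcium and 100% = 1 mM EGTA wells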
# DETAILS: 30 min, at 10 µM
Hit rate of the full screen: of about 360,000 compounds, about 5,000 (1.4%) were called active.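 How the source made its calls: active means inhibition of 50% or more, scaled per plate between neutral and stimulator controls; inactive means the rest.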 The sample holds actives, similar compounds and a random draw of the others, so the mix is not that of the screen.
I would appreciate it if you answered using one of these outcomes: active, inactive

Worked examples, 5 compounds total:
CC(=O)N1c2ccc(S(=O)(=O)N3CCCC(C(=O)Nc4ccc(C)cc4C)C3)cc2CC1C (stereo unspecified)    inactive
O=C(COc1ncnc2ccccc12)NC(=O)NCc1ccccc1    inactive
CCC(C)[C@H]1COCCS(=O)(=O)N1Cc1ccc(C)cc1 (stereo partly specified)    inactive
O=C(CSc1nnc(-c2cccs2)n1Cc1ccco1)c1ccc2c(c1)OCO2    inactive
COc1ccc(CNc2ncnc3ccccc23)cc1    active

Below: the item to evaluate.
# input # lookup: test call for COc1ccccc1N(CC(=O)Nc1ccc(C(F)(F)F)cc1)S(C)(=O)=O
# output inactive
